Give measured IC50 for each item. Keep answers brief.
system: HeLa; assay: Phototoxicity in human HeLa cells assessed as reduction in cell viability preincubated for 1 hr followed by LED light irradiation for 15 mins measured after 48 hrs by MTT assay; assay type: functional, cell-based; settings: light or radiation study
Numbers only, in µM.

                                        mol  targetortestsystem  readoutnumber
0  CN(C)c1ccc(-c2cc3c(s2)c2sc(-c4ccc(C=O)s4)cc2n3C(C)(C)C)cc1                HeLa            2.5
1  COc1ccc(-c2cc3c(s2)c2sc(-c4ccc(/C=C(\C#N)C(=O)O)s4)cc2n3C(C)(C)C)cc1                HeLa           0.19
2  CC(C)(C)n1c2cc(-c3ccc(N(c4ccccc4)c4ccccc4)cc3)sc2c2sc(-c3ccc(/C=C4\SC(=S)N(CC(=O)O)C4=O)s3)cc21                HeLa           17.1

Incoming: Quick one: IC50 of CN(C)c1ccc(-c2cc3c(s2)c2sc(-c4ccc(/C=C5\SC(=S)N(CC(=O)O)C5=O)s4)cc2n3C(C)(C)C)cc1 ?
Outgoing: 12.1
